From: the antibiotic and cytotoxicity screens of Wong et al. (2023)

Test system: HepG2
assay.summary: cytotoxicity call (relative viability < 0.9)
assay.context: 10 µM
About 3,300 (8.5%) of roughly 39,000 compounds were called active. Shown is part of a subset that was picked to be rich in actives.
Outcomes: active, inactive

* COc1ccc(S(=O)(=O)Nc2ccc3c(c2)C(=O)N([C@H](C)CO)C[C@H](C)[C@@H](CN(C)Cc2ccc(Cl)c(Cl)c2)O3)cc1 | inactive
* COc1ccc(S(=O)(=O)Nc2ccc3c(c2)C(=O)N([C@@H](C)CO)C[C@H](C)[C@@H](CN(C)Cc2ccc(Cl)c(Cl)c2)O3)cc1 | inactive
* COc1ccc(S(=O)(=O)N(C)C[C@@H]2Oc3ccc(NC(=O)Cc4ccccc4)cc3CC(=O)N([C@H](C)CO)C[C@@H]2C)cc1 | active
* Cc1ccc(S(=O)(=O)N(C)C[C@@H]2OCCCC[C@H](C)Oc3ccc(NC(=O)Nc4ccc(F)cc4)cc3C(=O)N([C@H](C)CO)C[C@@H]2C)cc1 | inactive
* O=C(C[C@H]1CC[C@@H]2[C@H](COC[C@H](O)CN2S(=O)(=O)c2cccc(Cl)c2)O1)NC1Cc2ccccc2C1 | inactive
* COc1ccc(S(=O)(=O)Nc2ccc3c(c2)C(=O)N([C@@H](C)CO)C[C@H](C)[C@H](CN(C)Cc2ccc(Cl)c(Cl)c2)O3)cc1 | inactive
* COc1cccc(S(=O)(=O)Nc2ccc3c(c2)[C@@H]2C[C@H](CC(=O)N4CCCCC4)O[C@@H](CO)[C@@H]2O3)c1 | inactive
* COc1ccc(S(=O)(=O)Nc2ccc3c(c2)C(=O)N([C@@H](C)CO)C[C@@H](C)[C@H](CN(C)Cc2ccc(Cl)c(Cl)c2)O3)cc1 | active
* Cc1ccc(S(=O)(=O)N(C)C[C@H]2OCCCC[C@@H](C)Oc3ccc(NC(=O)Nc4ccc5c(c4)OCO5)cc3C(=O)N([C@@H](C)CO)C[C@H]2C)cc1 | inactive
* COc1ccc(NC(=O)Nc2ccc3c(c2)C(=O)N([C@H](C)CO)C[C@H](C)[C@H](CN(C)C(=O)Nc2ccc(C(F)(F)F)cc2)O3)cc1 | inactive

----------
Tested on: HepG2
assay.summary: cytotoxicity call (relative viability < 0.9)
assay.context: 10 µM
The campaign covered roughly 39,000 compounds. About 3,300 (8.5%) were called active. The sample as a whole holds a higher share of actives than the screen did.
Possible outcomes: 1.0 = active, 0.0 = inactive

• CCSc1nc(-c2ccc(C)cc2)cc(C(F)(F)F)c1C#N = 0.0
• C[C@H]1CN([C@@H](C)CO)C(=O)CCCn2cc(nn2)CO[C@@H]1CN(C)Cc1ccc(C(=O)Nc2ccccc2N)cc1 = 0.0
• C[C@H]1CN([C@@H](C)CO)C(=O)c2cc(C#CC3CCCCC3)cnc2O[C@@H]1CN(C)C(=O)c1ccncc1 = 0.0
• C[C@@H]1CN([C@@H](C)CO)C(=O)c2cc(NC(=O)Cn3cnnn3)ccc2O[C@@H]1CN(C)Cc1ccc(Oc2ccccc2)cc1 = 0.0
• CN1C(=O)c2cc(NC(=O)Cc3cccs3)ccc2OC[C@@H]2O[C@@H](CC(=O)NCCc3ccncc3)CC[C@@H]21 = 0.0
• C[C@@H]1CN([C@H](C)CO)C(=O)c2cc(NC(=O)Nc3ccc4c(c3)OCO4)ccc2O[C@@H]1CN(C)Cc1ccc(-c2ccccc2)cc1 = 1.0
• Cc1ccc(S(=O)(=O)N[C@H]2CC[C@@H](CC(=O)NCc3ccc(Cl)c(Cl)c3)O[C@H]2CO)cc1 = 0.0
• COc1cccc(OC)c1C(=O)NN = 0.0
• C[C@H](CO)N1C[C@H](C)[C@@H](CN(C)S(=O)(=O)c2cn(C)cn2)Oc2ccc(NC(=O)Nc3ccccc3)cc2CC1=O = 0.0
• O=C(O[C@@H]1O[C@H]2COC(=O)c3cc(O)c(O)c(O)c3-c3c(cc(O)c(O)c3O)C(=O)O[C@@H]([C@H]1O)[C@@H]2O)c1cc(O)c(O)c(O)c1 = 0.0
• C[C@H](NC(=O)C[C@@H]1CC[C@H](NC(=O)CN2CCOCC2)[C@@H](CO)O1)c1ccccc1 = 0.0
• C[C@H]1CN([C@@H](C)CO)C(=O)c2cc(NC(=O)Nc3ccc4c(c3)OCO4)ccc2O[C@@H]1CN(C)Cc1ccc(-c2ccccc2)cc1 = 1.0
• COCC#Cc1cnc2c(c1)C(=O)N([C@@H](C)CO)C[C@@H](C)[C@@H](CN(C)C(=O)CCN1CCCCC1)O2 = 0.0
• Cc1cc(-c2ccccc2)nc(SCc2ccccc2)c1C#N = 1.0
• C[C@@H]1CN([C@H](C)CO)C(=O)c2cc(NS(=O)(=O)c3ccc(Cl)cc3)ccc2O[C@@H](C)CCCCO[C@H]1CN(C)C(=O)Nc1ccccc1 = 0.0
• N=C(N)NCCCCNC(=N)N.O=S(=O)(O)O = 0.0
• N=C(N)NCCCCN.O=S(=O)(O)O = 0.0
• CC(C)NC(=O)N(C)C[C@H]1Oc2ccc(NC(=O)Cn3cnnn3)cc2CC(=O)N([C@H](C)CO)C[C@H]1C = 0.0
• CCn1nnnc1NCc1cccn1C = 0.0

----------
Tested on: HepG2
assay.summary: cytotoxicity call (relative viability < 0.9)
assay.context: 10 µM
The whole screen tested about 39,000 compounds, of which about 3,300 (8.5%) were called active. Shown is part of a subset that was picked to be rich in actives.
readout.name: cytotoxicity call

* C[C@@H]1CN([C@H](C)CO)C(=O)c2cc(NS(=O)(=O)c3ccc(F)cc3)ccc2O[C@@H](C)CCCCO[C@@H]1CN(C)C(=O)Cc1ccccc1 | inactive
* C[C@@H]1CN([C@@H](C)CO)C(=O)c2cc(NS(=O)(=O)c3ccc(F)cc3)ccc2O[C@@H]1CN(C)Cc1ccc(Cl)c(Cl)c1 | inactive
* COc1ccc(NC(=O)Nc2ccc3c(c2)CC(=O)N([C@@H](C)CO)C[C@@H](C)[C@@H](CN(C)Cc2ccc(Oc4ccccc4)cc2)O3)cc1 | active
* C[C@@H]1CN([C@H](C)CO)C(=O)c2cc(NS(=O)(=O)c3ccc(Cl)cc3)ccc2O[C@@H]1CN(C)Cc1ccc(Cl)c(Cl)c1 | active
* COc1ccc(NC(=O)Nc2ccc3c(c2)CC(=O)N([C@@H](C)CO)C[C@H](C)[C@@H](CN(C)Cc2ccc(Oc4ccccc4)cc2)O3)cc1 | inactive
* O=C(Nc1ccccc1C(=O)O)c1nnc[nH]1 | inactive
* C[C@@H]1CN([C@@H](C)CO)S(=O)(=O)c2ccc(-c3ccccc3F)cc2O[C@H]1CN(C)S(C)(=O)=O | inactive
* COc1ccc(NC(=O)Nc2ccc3c(c2)CC(=O)N([C@H](C)CO)C[C@H](C)[C@@H](CN(C)Cc2ccc(Oc4ccccc4)cc2)O3)cc1 | inactive

----------
Test system: HepG2
assay.summary: cytotoxicity call (relative viability < 0.9)
assay.context: 10 µM
The whole screen tested about 39,000 compounds, of which about 3,300 (8.5%) were called active. The full list was thinned out, with actives kept by preference.
Labels: 1 for active, -1 for inactive

- C[C@H](N[C@@H](CCc1ccccc1)C(=O)O)C(=O)N1CCC[C@H]1C(=O)O: -1
- C[C@@H]1CN([C@H](C)CO)C(=O)c2cc(NS(=O)(=O)c3cn(C)cn3)ccc2O[C@H]1CN(C)Cc1ccncc1: -1
- O=C(N[C@@H](c1ccccc1)c1ccc2ccccc2n1)C1CCN(C(=O)NC(c2ccccc2)c2ccccc2)CC1: -1
- CCCCc1oc2ccccc2c1C(=O)c1cc(I)c(OCCN(CC)CC)c(I)c1.Cl: 1
- C[C@@H]1CN([C@@H](C)CO)C(=O)c2cc(NS(=O)(=O)c3ccccc3)ccc2O[C@H]1CN(C)S(C)(=O)=O: -1

----------
Test system: HepG2
assay.summary: cytotoxicity call (relative viability < 0.9)
assay.context: 10 µM
In all, about 39,000 compounds went through this assay and about 3,300 (8.5%) were called active. The sample as a whole holds a higher share of actives than the screen did.
Outcome codes: Y = active, N = inactive

* COc1ccc(NC(=O)Nc2ccc3c(c2)C(=O)N([C@H](C)CO)C[C@H](C)[C@@H](CN(C)S(=O)(=O)c2ccc(OC)cc2)OCCCC[C@@H](C)O3)cc1 | N
* CCCc1cc(C)[nH]c(=O)c1CNC(=O)c1cc(-c2ccc(N3CCN(C(C)C)CC3)nc2)cc2c1cnn2C(C)C | Y
* Cc1nc[nH]c1CN(C)[C@H](C)C(=O)N(C)C | N
* C[C@@H]1CCCCO[C@@H](CN(C)Cc2ccc(Cl)c(Cl)c2)[C@@H](C)CN([C@@H](C)CO)C(=O)c2cc(NC(=O)Nc3ccc(C(F)(F)F)cc3)ccc2O1 | N
* C[C@@H]1CN([C@H](C)CO)C(=O)Cc2cc(NC(=O)Cc3cn(C)c4ccccc34)ccc2O[C@H]1CN(C)Cc1ccc(C(=O)Nc2ccccc2N)cc1 | N
* CC(=O)N[C@@H]1[C@@H](OCCOc2ccc(Cl)cc2C)O[C@H](CO)[C@H](O)[C@@H]1O | N
* C[C@@H]1CCCCO[C@@H](CN(C)Cc2ccc(Cl)c(Cl)c2)[C@@H](C)CN([C@H](C)CO)C(=O)c2cc(NC(=O)Nc3ccc(C(F)(F)F)cc3)ccc2O1 | N
* C[C@@H]1CN([C@H](C)CO)C(=O)Cc2cc(NC(=O)Nc3ccccc3)ccc2O[C@@H]1CN(C)S(=O)(=O)c1cn(C)cn1 | N
* C[C@@H]1CCCCO[C@H](CN(C)Cc2ccc(Cl)c(Cl)c2)[C@@H](C)CN([C@@H](C)CO)C(=O)c2cc(NC(=O)Nc3ccc(C(F)(F)F)cc3)ccc2O1 | Y
* O=C(C[C@@H]1CC[C@H](NC(=O)Nc2ccc3c(c2)OCO3)[C@@H](CO)O1)NCCCN1CCOCC1 | N
* Cc1ccc(S(=O)(=O)Nc2ccc3c(c2)C(=O)N([C@H](C)CO)C[C@H](C)[C@@H](CN(C)C(=O)NC2CCCCC2)OCCCC[C@@H](C)O3)cc1 | N
